Numbers sourced from patent US7868204B2.

study-target: cloned recombinant human HDAC-1 (Homo sapiens, UniProt Q13547)
Construct: made in house; host or cells: Baculovirus insect cell expression system
Sequence (Q13547 whole entry): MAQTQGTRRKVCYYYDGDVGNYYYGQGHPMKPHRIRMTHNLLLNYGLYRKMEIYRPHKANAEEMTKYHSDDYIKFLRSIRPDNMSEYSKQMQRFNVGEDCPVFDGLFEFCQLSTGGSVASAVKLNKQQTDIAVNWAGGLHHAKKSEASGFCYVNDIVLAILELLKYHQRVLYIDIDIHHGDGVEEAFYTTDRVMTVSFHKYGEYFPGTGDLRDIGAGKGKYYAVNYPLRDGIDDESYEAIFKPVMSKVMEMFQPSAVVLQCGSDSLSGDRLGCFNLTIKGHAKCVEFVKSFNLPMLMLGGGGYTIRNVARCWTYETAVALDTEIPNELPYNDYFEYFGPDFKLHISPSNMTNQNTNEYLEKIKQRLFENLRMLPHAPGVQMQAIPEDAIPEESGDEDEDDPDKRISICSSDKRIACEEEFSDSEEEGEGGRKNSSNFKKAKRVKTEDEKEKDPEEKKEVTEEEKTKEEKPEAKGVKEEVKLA
test-name: Human HDAC-1 enzyme inhibition, Assay 1 ([3H]-acetylated histone substrate, scintillation counting)
Format: biochemical
protocol-conditions: Table 5F; read-out: Human HDAC-1 IC50
measured-parameter: pIC50
The value called pIC50 is obtained by taking minus log10 of the concentration in mol/L.

Below are worked cases with known answers.
COc1ccc(C2=NC(c3ccc(C(=O)Nc4ccccc4N)cc3)CO2)cc1OC (centres unmarked) [compound 301] : 5.52
Nc1ccccc1NC(=O)c1ccc(Cn2nnc3ccc(Cl)cc3c2=O)cc1 [Cpd 348] : 5.70
Cc1nc2ccccc2c(=O)n1Cc1ccc(C(=O)Nc2ccccc2N)cc1 [Cpd 337] : 5.52
COc1ccc(-c2cc(Cl)nc(NCc3ccc(C(=O)Nc4ccccc4N)cc3)n2)cc1OC [Cpd 439] : 5.52

Okay, now this molecule:
Item Cn1c2ccc(NCc3ccc(C(=O)Nc4ccccc4N)cc3)cc2c2nc3ccccc3nc21 [Cpd 462] has what recorded pIC50?
5.40
